Reference source: patent US20230391826A1

Etop pAKT inhib values by entry
Biological target: EphA2 endogenously expressed on PC3 prostate cancer cells (UniProt P29317 24-976, limits assumed)
Sequence (P29317 24-976 limits assumed): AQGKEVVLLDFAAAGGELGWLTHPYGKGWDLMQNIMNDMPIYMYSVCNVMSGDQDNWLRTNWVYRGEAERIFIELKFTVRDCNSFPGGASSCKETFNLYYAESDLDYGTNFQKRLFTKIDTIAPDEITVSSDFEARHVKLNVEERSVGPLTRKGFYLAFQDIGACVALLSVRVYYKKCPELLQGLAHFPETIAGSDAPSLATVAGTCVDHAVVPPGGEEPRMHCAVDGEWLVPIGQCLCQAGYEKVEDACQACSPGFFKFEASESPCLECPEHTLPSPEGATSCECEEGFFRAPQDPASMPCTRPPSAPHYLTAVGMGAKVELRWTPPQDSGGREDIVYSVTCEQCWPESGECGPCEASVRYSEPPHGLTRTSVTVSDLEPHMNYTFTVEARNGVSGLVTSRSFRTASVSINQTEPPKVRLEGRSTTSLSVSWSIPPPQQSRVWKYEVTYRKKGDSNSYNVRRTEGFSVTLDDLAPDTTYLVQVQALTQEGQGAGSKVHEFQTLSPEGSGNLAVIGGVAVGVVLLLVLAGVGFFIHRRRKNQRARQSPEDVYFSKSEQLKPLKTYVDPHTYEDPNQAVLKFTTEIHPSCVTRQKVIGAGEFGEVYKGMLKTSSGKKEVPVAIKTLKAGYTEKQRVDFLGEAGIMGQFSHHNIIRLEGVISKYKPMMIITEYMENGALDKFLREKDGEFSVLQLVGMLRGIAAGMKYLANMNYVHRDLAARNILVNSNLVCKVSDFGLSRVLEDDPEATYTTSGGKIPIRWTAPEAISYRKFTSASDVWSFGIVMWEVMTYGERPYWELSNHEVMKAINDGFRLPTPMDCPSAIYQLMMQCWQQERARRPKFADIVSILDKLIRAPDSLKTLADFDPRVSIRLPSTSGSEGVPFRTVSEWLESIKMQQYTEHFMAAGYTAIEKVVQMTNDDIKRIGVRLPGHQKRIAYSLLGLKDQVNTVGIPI
Assay: cell-based or functional assay
Where no end group is shown, it is not given here.
Measurement Label: Etop pAKT inhib

Click dimer (N-ter) (not fully specified; propargylglycine (Pra) at position 1, joined by a click linkage to KN3 of the other chain; C-terminal amide; azido-lysine (KN3) at position 1, joined by a click linkage to Pra of the other chain; C-terminal amide) peptide 1: KAWLAYPDSVPYRPK peptide 2: XGAWLAYPDSVPYRPK : 0.87
CGAWLAYPDSVPYR (also: homodimer: N-terminal Cys of two chains joined by disulfide, N-terminally disulfide-linked homodimer made from monomer (15*); also called dimer (4)) [CGA-WLA-YR dimer (N-ter)] : 0.9
CGAWLAYPDSVPYRPK-NH2 (also: homodimer: N-terminal Cys of two chains joined by disulfide) [CGA-WLA-YRPKam dimer (N-ter)] : 0.97
